Molecular target: Programmed cell death 1 ligand 1 (Homo sapiens, UniProt Q9NZQ7)
Sequence (Q9NZQ7 whole entry): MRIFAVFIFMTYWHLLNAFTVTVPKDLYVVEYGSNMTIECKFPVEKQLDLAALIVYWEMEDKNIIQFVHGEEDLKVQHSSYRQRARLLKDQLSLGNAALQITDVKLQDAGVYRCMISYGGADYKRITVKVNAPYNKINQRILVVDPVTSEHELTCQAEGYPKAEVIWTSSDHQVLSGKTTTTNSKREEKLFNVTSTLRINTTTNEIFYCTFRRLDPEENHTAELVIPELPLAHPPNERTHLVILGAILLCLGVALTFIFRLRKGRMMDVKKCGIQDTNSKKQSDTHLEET
Experiment: Binding affinity towards His-tagged recombinant human PD-L1 measured by MicroScale Thermophoresis (MST) assay
pKd: −log10 of the molar value.
REPORTED_METRIC: pKd

Ask | Form field: reported pKd of Cc1ccccc1C1=NN(c2ccccn2)C(=O)C1
Reply | < 3.30

Ask | How about COc1ccc(C2=NN(c3ccccn3)C(=O)C2)cc1OC ?
Reply | 8.92

Ask | How about O=C1CC(c2ccc(Cl)c(Cl)c2)=NN1c1ccccn1 ?
Reply | 6.23

Ask | How about CCC1=NN(c2ccccn2)C(=O)C1 ?
Reply | < 3.30

Ask | How about Cc1ccc(C2=NN(c3ccccn3)C(=O)C2)cc1 ?
Reply | 5.96

Ask | How about CCCC1=NN(c2ccccn2)C(=O)C1 ?
Reply | < 3.30

Ask | How about O=C1CC(c2ccccc2F)=NN1c1ccccn1 ?
Reply | < 3.30

Ask | How about CCCCC1=NN(c2ccccn2)C(=O)C1 ?
Reply | < 3.30

Ask | How about CC(C)C1=NN(c2ccccn2)C(=O)C1 ?
Reply | < 3.30

Ask | How about O=C1CC(c2cccc(Cl)c2)=NN1c1ccccn1 ?
Reply | < 3.30

Ask | How about O=C1CC(c2ccccn2)=NN1c1ccccn1 ?
Reply | < 3.30

Ask | How about Cc1cccc(C2=NN(c3ccccn3)C(=O)C2)c1 ?
Reply | < 3.30

Ask | How about CC(C)(C)C1=NN(c2ccccn2)C(=O)C1 ?
Reply | < 3.30

Ask | How about O=C1CC(c2ccccc2Cl)=NN1c1ccccn1 ?
Reply | < 3.30

Ask | How about O=C1CC(c2ccc(C(F)(F)F)cc2)=NN1c1ccccn1 ?
Reply | 6.81

* * *

Test: Solubility in PBS at pH 7.4
Assay type: physicochemical
For each record, write down the corresponding solubility.
Write down the numeric answer in µM and omit the unit.

Ask | Form field: reported solubility of COc1ccccc1C1=NN(c2ccccn2)C(=O)C1
Reply | 80.9

Ask | How about COc1ccc(C2=NN(c3ccccn3)C(=O)C2)cc1 ?
Reply | 199

Ask | How about COc1ccc(C2=NN(c3ccccn3)C(=O)C2)cc1OC ?
Reply | 183

Ask | How about O=C1CC(C23CC4CC(CC(C4)C2)C3)=NN1c1ccc(Cl)cc1Cl ?
Reply | 1.9

* * *

Experiment: 1-Octanol/phosphate buffered-saline distribution coefficient, logD of compound at pH 7.4 measured after 2 hrs by LC-MS analysis
Type: physicochemical
For each record, write down the corresponding logD at 2 h.
Answer with the value's number alone.

Ask | Form field: reported logD at 2 h of CC1=NN(c2ccccn2)C(=O)C1
Reply | 0.85

Ask | How about O=C1CC(C23CC4CC(CC(C4)C2)C3)=NN1c1ccc(Cl)cc1Cl ?
Reply | 4.28

Ask | How about COc1ccccc1C1=NN(c2ccccn2)C(=O)C1 ?
Reply | 2.56

Ask | How about COc1ccc(C2=NN(c3ccccn3)C(=O)C2)cc1OC ?
Reply | 2.19

Ask | How about COc1ccc(C2=NN(c3ccccn3)C(=O)C2)cc1 ?
Reply | 2.82

* * *

Test: Stability in CD-1 mouse plasma assessed as half-ife at 10 uM
Assay type: ADME, cell-free
For each record, write down the corresponding half-life at 10 µM.
Write down the numeric answer in min and omit the unit.

Ask | Form field: reported half-life at 10 µM of CC1=NN(c2ccccn2)C(=O)C1
Reply | 16

Ask | How about O=C1CC(C23CC4CC(CC(C4)C2)C3)=NN1c1ccc(Cl)cc1Cl ?
Reply | 31

Ask | How about COc1ccc(C2=NN(c3ccccn3)C(=O)C2)cc1 ?
Reply | 12

Ask | How about COc1ccccc1C1=NN(c2ccccn2)C(=O)C1 ?
Reply | 10.9

Ask | How about COc1ccc(C2=NN(c3ccccn3)C(=O)C2)cc1OC ?
Reply | 30

Values compiled from ChEMBL document CHEMBL5154872.
